tested on: OVCAR4; assay: Euclidean distance of Cell Painting phenotypic profile (signed KS, 77 features) to DMSO centroid (dimensionless distance); 5 or 10 uM (library dependent); higher = stronger phenotypic change vs DMSO (phenoactivity); conditions: 48 h
Where a name gives a salt, the structure may show the parent alone.
Mark Not met for Euclidean distance values under 2, and Met for everything at or above.

Look over these answered cases.
# MOLECULE, CLASSIFICATION
records = [
    ("CCCCCC(=O)O[C@]1(C(C)=O)CC[C@H]2[C@@H]3CCC4=CC(=O)CC[C@]4(C)[C@H]3CC[C@@]21C [Hydroxyprogesterone caproate]", "Not met"),
    ("CC(C)N(CCCCOCC(=O)NS(C)(=O)=O)c1cnc(-c2ccccc2)c(-c2ccccc2)n1 [Selexipag]", "Not met"),
    ("COc1c(C)c2c(c(O)c1C/C=C(\\C)CCC(=O)OCCN1CCOCC1)C(=O)OC2 [Mycophenolate Mofetil]", "Met"),
    ("CCCCOc1ccc(C(=O)CCN2CCCCC2)cc1 [Dyclonine HCl]", "Not met"),
    ("CN(C)CCN1C(=O)c2cccc3cc(N)cc(c23)C1=O [Amonafide]", "Met"),
    ("NCc1ccc(S(N)(=O)=O)cc1 [Mafenide Acetate]", "Not met"),
    ("O=C(O)CSc1nnc(Br)n1-c1ccc(C2CC2)c2ccccc12 [Lesinurad]", "Not met"),
    ("c1ccc(CC2=NCCN2)cc1 [Tolazoline HCl]", "Not met"),
    ("COc1cccc2cc(-c3nc([C@H]4CC[C@H](C(=O)O)CC4)n4ncnc(N)c34)[nH]c12", "Met"),
    ("CCc1cc(C(N)=O)ccc1-n1nc(C(C)C)c2c(-n3cnc(-c4cnn(C)c4)c3)ccnc21", "Met"),
]

In: Can CCCCCCCN(CC)CCCC(O)c1ccc(NS(C)(=O)=O)cc1 (stereo unspecified) [Ibutilide Fumarate] be said to have Euclidean distance at or above 2?
Out: Not met

In: Can CN(C)C(=O)c1cc2cnc(Nc3ccc(N4CCNCC4)cn3)nc2n1C1CCCC1 be said to have Euclidean distance at or above 2?
Out: Not met

In: Can c1ccc2c(CCNc3ccc(Nc4ccncc4)cc3)c[nH]c2c1 be said to have Euclidean distance at or above 2?
Out: Met

In: Can C[N+](C)(C)CCO.[Cl-] [Choline Chloride] be said to have Euclidean distance at or above 2?
Out: Not met

In: Can CC(C)(c1ccc(O)cc1)c1ccc(O)cc1 [Bisphenol A] be said to have Euclidean distance at or above 2?
Out: Not met

In: Can Cc1c(F)cccc1NC(=O)Nc1ccc(Cl)c(S(=O)(=O)[C@H]2CCCNC2)c1O be said to have Euclidean distance at or above 2?
Out: Not met
